Tested on: Plasmodium falciparum
Experiment: GSK_TCMDC: Inhibition of Plasmodium falciparum 3D7 in whole red blood cells, using parasite LDH activity as an index of growth. Test compounds present at 2uM
Type: functional
Below, each of the molecules is paired with its reported Inhibition value.
Enter your answer as a number in %; do not include the unit.

Below, 5 molecules whose answers are already recorded.
What measured Inhibition goes with "CS(=O)(=O)NCCCNCc1ccc(-c2ccc(-c3nc4cc(C(F)(F)F)ccc4[nH]3)cc2)cc1.O=C(O)C(F)(F)F" ? 100

Then this molecule: "Cc1cc(N2CCCC2=O)ccc1-c1ccc(C(=O)N2CCC(Oc3cccc(Cl)c3)CC2)cc1" 99

Then this molecule: "Oc1ccc(CCNc2nc(NCc3ccccc3-c3ccc(C(F)(F)F)cc3)nc(N3CCNCC3)n2)cc1" 97

Then this molecule: "O=C(Nc1cccc(C(F)(F)F)c1)Nc1ccc(F)c([N+](=O)[O-])c1" 100

Then this molecule: "O=C(N[C@@H](Cc1ccccc1)C(=O)NC1CCCCCC1)c1ccc(O)c(-c2ccc(Cl)c(Cl)c2)c1" 92

---
What measured Inhibition goes with "CC(=O)Nc1ccc(NC(=O)c2cc(-c3ccc(C)cc3O)n[nH]2)cc1" ? 100

Then this molecule: CC(CNC(=O)c1cc2c(Cl)cc(Cl)cc2[nH]1)CNc1cc(=O)c2ccccc2[nH]1.O=C(O)C(F)(F)F (centres undefined) 97

Then this molecule: "Cc1ccc(NC(=O)c2cc([N+](=O)[O-])ccc2NCc2cccnc2)cc1Cl" 86

Then this molecule: "CN1CCN(CCCNCc2ccc(Nc3nccc(Nc4ccc(Oc5ccccc5)cc4)n3)cc2)CC1" 100

Then this molecule: CCOc1ccc(C(Cc2ccccc2)NC(=O)c2cccnc2)cc1OCC (centres undefined) 100

Then this molecule: "Cc1cc(OCC(=O)Nc2ccc(-c3nc4ccccc4[nH]3)cc2)cc(C)c1Cl" 99

Then this molecule: "O=C(CCc1c[nH]cn1)Nc1ccc(-c2ccc(-c3nc4ccccc4[nH]3)cc2)cc1" 98

Then this molecule: "CCOc1ccc(S(=O)(=O)N(C)c2ccc(OCC(=O)Nc3nccs3)cc2)cc1" 95

Then this molecule: "CCCCOP(=O)(OCCCC)C(=Cc1ccc(O)c2ccccc12)P(=O)(OCCCC)OCCCC" 84

Then this molecule: CC1CCCN(S(=O)(=O)c2ccc(NC(=O)c3cc(-c4ccccc4O)n[nH]3)cc2)C1 (centres undefined) 93

Then this molecule: "CCN(CCCN1CCCCC1)c1cc(C)nc(Nc2ccc(Cl)cc2)n1.Cl" 100

Then this molecule: "Nc1nc(-c2ccccn2)nc(-n2nc(-c3cccc(C(F)(F)F)c3)cc2N)n1.O=C(O)C(F)(F)F" 87

Then this molecule: "CCc1ccc(Cc2cnc3nc(N)nc(N)c3c2C)cc1" 97

Then this molecule: O=C(Nc1ccc(Cl)cc1Cl)N[C@H]1CCN(CCCCCNC(=O)C2CC2c2ccc(Cl)c(Cl)c2)C1 (some centres undefined) 94

Then this molecule: "CCCc1cnc2nc(N)nc(N)c2c1C" 93

Then this molecule: "CN1CCN(Cc2ccc(-c3ccc4c(Nc5cc(O)c(Cl)cc5F)ccnc4c3)o2)CC1" 100

Then this molecule: "COc1ccc(-c2ccc(NC(=O)c3ccc(Cl)cc3)cc2)cc1CN1CCN(C)CC1.O=C(O)C(F)(F)F" 86

Then this molecule: "O=C(Nc1cccc(-c2ccc(-c3nc4cc(C(F)(F)F)ccc4[nH]3)s2)c1)c1cccnc1" 100

Then this molecule: Cc1cccc(CN2CCCC3(CCN(Cc4ccccc4O)C3)C2)c1 (centres undefined) 99

Then this molecule: CCCNCc1ccc(-c2ccc(CN(CC3CCCO3)C(=O)COc3ccccc3Cl)cc2)nc1.O=C(O)C(F)(F)F (centres undefined) 89
